Attribution: patent US5550110A

target_desc: rat recombinant ETB receptor (CHO cells) (Rattus norvegicus)
Sequence (P21451 27-442): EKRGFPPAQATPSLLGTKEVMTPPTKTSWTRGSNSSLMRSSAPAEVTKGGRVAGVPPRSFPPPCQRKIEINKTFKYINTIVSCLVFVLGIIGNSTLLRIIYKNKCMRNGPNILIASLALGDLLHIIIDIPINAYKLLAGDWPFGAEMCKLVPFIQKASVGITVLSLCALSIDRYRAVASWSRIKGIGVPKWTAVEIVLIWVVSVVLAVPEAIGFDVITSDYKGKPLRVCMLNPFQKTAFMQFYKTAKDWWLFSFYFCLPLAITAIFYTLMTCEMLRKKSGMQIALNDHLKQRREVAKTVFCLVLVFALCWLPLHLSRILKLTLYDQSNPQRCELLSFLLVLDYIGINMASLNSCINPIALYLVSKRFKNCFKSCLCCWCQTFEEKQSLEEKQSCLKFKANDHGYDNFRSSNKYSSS
experiment_notes: Inhibition of ET-1 stimulated arachidonic acid release (AAR-B)
condition_parameters: ET-1 0.3 nM
Peptide text beside a SMILES is read from it.
Reported pIC50 values for the following molecules.
Expect pIC50 as a plain number equal to -log10 of the molar concentration.

- molecule: "CC[C@H](C)[C@H](NC(=O)[C@H](CC(=O)O)NC(=O)[C@H](CC(C)C)NC(=O)[C@H](NC(C)=O)C1c2ccccc2Sc2ccccc21)C(=O)N[C@H](C(=O)N[C@@H](Cc1c[nH]c2ccccc12)C(=O)O)[C@@H](C)CC [Example 5, Ac-D-Txg-Leu-Asp-Ile-Ile-Trp] (HELM PEPTIDE1{[ac].[O=C([C@H](N[*:1])C1c2ccccc2Sc2ccccc21)[*:2]].L.D.I.I.W}$$$$V2.0)"
  target_desc: "rat recombinant ETB receptor (CHO cells) (Rattus norvegicus)"
  pIC50: 7.21
- molecule: "CC[C@H](C)[C@H](NC(=O)[C@H](CC(=O)O)NC(=O)[C@H](CCC(=O)O)NC(=O)[C@H](NC(C)=O)C1c2ccccc2CCc2ccccc21)C(=O)N[C@H](C(=O)N[C@@H](Cc1c[nH]c2ccccc12)C(=O)O)[C@@H](C)CC [Example 8, Ac-D-Bhg-Glu-Asp-Ile-Ile-Trp] (HELM PEPTIDE1{[ac].[O=C([C@H](N[*:1])C1c2ccccc2CCc2ccccc21)[*:2]].E.D.I.I.W}$$$$V2.0)"
  target_desc: "rat recombinant ETB receptor (CHO cells) (Rattus norvegicus)"
  pIC50: 7.57

Note: attention shifts to another entry.
**Query** Fill blank: measured pIC50 of the molecule CC[C@H](C)[C@H](NC(=O)[C@H](CC(=O)O)NC(=O)[C@H](CC(C)C)NC(=O)[C@H](NC(C)=O)C1c2ccccc2C=Cc2ccccc21)C(=O)N[C@H](C(=O)N[C@@H](Cc1c[nH]c2ccccc12)C(=O)O)[C@@H](C)CC [Example 6, Ac-D-Bheg-Leu-Asp-Ile-Ile-Trp] (HELM PEPTIDE1{[ac].[O=C([C@H](N[*:1])C1c2ccccc2C=Cc2ccccc21)[*:2]].L.D.I.I.W}$$$$V2.0) is ____.
**Result** 7.77

* * *

target_desc: UniProt:Q9N0W7
Sequence (Q9N0W7 27-441): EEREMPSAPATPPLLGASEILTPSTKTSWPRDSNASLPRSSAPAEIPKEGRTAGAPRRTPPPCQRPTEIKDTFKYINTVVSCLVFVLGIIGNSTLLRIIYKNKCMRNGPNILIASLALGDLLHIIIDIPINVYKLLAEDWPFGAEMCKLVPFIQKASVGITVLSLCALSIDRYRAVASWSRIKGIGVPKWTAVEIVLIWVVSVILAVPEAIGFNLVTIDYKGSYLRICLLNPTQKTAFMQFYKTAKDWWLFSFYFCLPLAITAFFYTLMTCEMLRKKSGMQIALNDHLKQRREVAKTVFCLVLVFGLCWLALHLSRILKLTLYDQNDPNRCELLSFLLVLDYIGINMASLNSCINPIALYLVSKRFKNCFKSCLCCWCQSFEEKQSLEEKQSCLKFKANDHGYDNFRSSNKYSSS
Peptide text beside a SMILES is read from it.
property_label: Kb
Note: state the figure and append the unit.

**Query** Value lookup for Kb; key = CC[C@H](C)[C@H](NC(=O)[C@H](CC(=O)O)NC(=O)[C@H](CC(C)C)NC(=O)[C@H](NC(C)=O)C1c2ccccc2CCc2ccccc21)C(=O)N(C)[C@H](C(=O)N[C@@H](Cc1c[nH]c2ccccc12)C(=O)O)[C@@H](C)CC [Example 19, Ac-D-Bhg-Leu-Asp-Ile-N-MeIle-Trp] (HELM PEPTIDE1{[ac].[O=C([C@H](N[*:1])C1c2ccccc2CCc2ccccc21)[*:2]].L.D.I.[meI].W}$$$$V2.0)
**Result** 251 nM

* * *

target_desc: endothelin receptor (ETB), rat cerebellar membranes (Rattus norvegicus, UniProt P21451)
Construct: thaw one aliquot of frozen rat cerebellar membranes (2 mg protein in 0.5 mL); from tissue; host or cells: rat cerebellum (membranes)
Sequence (P21451 27-442): as the sequence (P21451 27-442) above
experiment_notes: Endothelin Receptor Binding Assay-B (ERBA-B), [125I]-ET-1 binding in rat cerebellar membranes
condition_parameters: [125I]-ET-1 25 pM, read-out: ERRA-B IC50
Square brackets hold non-standard residues; d marks the D form. Peptide text beside a SMILES is read from it. * marks the point of attachment. dGly(5-dibenzosuberyl) = N[C@@H](C(=O)O)C1c2ccccc2CCc2ccccc21; For = O=C*
One threshold, 0.03 µM, splits the recorded IC50 values: lower ones are criterion met, equal or higher ones are criterion not met.

Previously resolved entries follow.
- molecule: "CC[C@H](C)[C@H](NC(=O)[C@H](CC(=O)O)NC(=O)[C@H](CCC(=O)O)NC(=O)[C@H](NC(C)=O)C1c2ccccc2CCc2ccccc21)C(=O)N[C@H](C(=O)N[C@@H](Cc1c[nH]c2ccccc12)C(=O)O)[C@@H](C)CC [Example 8, Ac-D-Bhg-Glu-Asp-Ile-Ile-Trp] (HELM PEPTIDE1{[ac].[O=C([C@H](N[*:1])C1c2ccccc2CCc2ccccc21)[*:2]].E.D.I.I.W}$$$$V2.0)"
  target_desc: "endothelin receptor (ETB), rat cerebellar membranes (Rattus norvegicus, UniProt P21451)"
  category_label: "criterion met"
- molecule: "CC[C@H](C)[C@H](NC(=O)[C@H](CC(=O)O)NC(=O)[C@H](CCCNC(=N)N)NC(=O)[C@H](NC(C)=O)C1c2ccccc2CCc2ccccc21)C(=O)N[C@H](C(=O)N[C@@H](Cc1cn(C=O)c2ccccc12)C(=O)O)[C@@H](C)CC [Example 18, Ac-D-Bhg-Arg-Asp-Ile-Ile-Trp(For)] (Ac-[dGly(5-dibenzosuberyl)]RDIIW(For)-OH)"
  target_desc: "endothelin receptor (ETB), rat cerebellar membranes (Rattus norvegicus, UniProt P21451)"
  category_label: "criterion not met"
- molecule: "CC[C@H](C)[C@H](NC(=O)[C@H](CC(=O)O)NC(=O)[C@H](CC(C)C)NC(=O)[C@H](NC(C)=O)C1c2ccccc2CCc2ccccc21)C(=O)N[C@H](C(=O)N[C@@H](Cc1c[nH]c2ccccc12)C(=O)O)[C@@H](C)CC [Example 1, Ac-D-Bhg-Leu-Asp-Ile-Ile-Trp] (HELM PEPTIDE1{[ac].[O=C([C@H](N[*:1])C1c2ccccc2CCc2ccccc21)[*:2]].L.D.I.I.W}$$$$V2.0)"
  target_desc: "endothelin receptor (ETB), rat cerebellar membranes (Rattus norvegicus, UniProt P21451)"
  category_label: "criterion met"
- molecule: "CC[C@H](C)[C@H](NC(=O)[C@H](CC(=O)O)NC(=O)[C@H](CC(C)C)NC(=O)[C@H](N)C1c2ccccc2CCc2ccccc21)C(=O)N[C@H](C(=O)N[C@@H](Cc1c[nH]c2ccccc12)C(=O)O)[C@@H](C)CC [Example 2, D-Bhg-Leu-Asp-Ile-Ile-Trp] (HELM PEPTIDE1{[N[C@@H](C(=O)[*:2])C1c2ccccc2CCc2ccccc21].L.D.I.I.W}$$$$V2.0)"
  target_desc: "endothelin receptor (ETB), rat cerebellar membranes (Rattus norvegicus, UniProt P21451)"
  category_label: "criterion not met"

We next turn to a different molecule, shown below.
**Query** Does this molecule meet the criterion IC50 < 0.03 µM? CC[C@H](C)[C@H](NC(=O)[C@H](CC(=O)O)NC(=O)[C@H](CC(C)C)NC(=O)[C@@H](N)C1c2ccccc2Sc2ccccc21)C(=O)N[C@H](C(=O)N[C@@H](Cc1c[nH]c2ccccc12)C(=O)O)[C@@H](C)CC [Example 11, L-Txg-Leu-Asp-Ile-Ile-Trp] (HELM PEPTIDE1{[N[C@H](C(=O)[*:2])C1c2ccccc2Sc2ccccc21].L.D.I.I.W}$$$$V2.0)
**Result** criterion not met
